The reported numbers originate from paper PMC5760199.

target: CPSF160FL;WDR33 M1-K410 R49A/K50A;CPSF30 ZF1-3 (Homo sapiens;Homo sapiens;Homo sapiens, UniProt Q10570;Q9C0J8;O95639-3 1-1443;1-410;1-117, |R49A;K50A|); assay: fluorescence polarization; 20 mM Tris pH 7.5, 150 mM NaCl, 1 mM DTT, 0.05% Tween 20, 25 C, 0.1 nM labelled RNA; details: protein: recombinant;recombinant;recombinant; tags: His6 (438B vector); copies: 1;1;1; label: 5' Atto532
Sequence (Q10570 whole entry, chain 1 of 3): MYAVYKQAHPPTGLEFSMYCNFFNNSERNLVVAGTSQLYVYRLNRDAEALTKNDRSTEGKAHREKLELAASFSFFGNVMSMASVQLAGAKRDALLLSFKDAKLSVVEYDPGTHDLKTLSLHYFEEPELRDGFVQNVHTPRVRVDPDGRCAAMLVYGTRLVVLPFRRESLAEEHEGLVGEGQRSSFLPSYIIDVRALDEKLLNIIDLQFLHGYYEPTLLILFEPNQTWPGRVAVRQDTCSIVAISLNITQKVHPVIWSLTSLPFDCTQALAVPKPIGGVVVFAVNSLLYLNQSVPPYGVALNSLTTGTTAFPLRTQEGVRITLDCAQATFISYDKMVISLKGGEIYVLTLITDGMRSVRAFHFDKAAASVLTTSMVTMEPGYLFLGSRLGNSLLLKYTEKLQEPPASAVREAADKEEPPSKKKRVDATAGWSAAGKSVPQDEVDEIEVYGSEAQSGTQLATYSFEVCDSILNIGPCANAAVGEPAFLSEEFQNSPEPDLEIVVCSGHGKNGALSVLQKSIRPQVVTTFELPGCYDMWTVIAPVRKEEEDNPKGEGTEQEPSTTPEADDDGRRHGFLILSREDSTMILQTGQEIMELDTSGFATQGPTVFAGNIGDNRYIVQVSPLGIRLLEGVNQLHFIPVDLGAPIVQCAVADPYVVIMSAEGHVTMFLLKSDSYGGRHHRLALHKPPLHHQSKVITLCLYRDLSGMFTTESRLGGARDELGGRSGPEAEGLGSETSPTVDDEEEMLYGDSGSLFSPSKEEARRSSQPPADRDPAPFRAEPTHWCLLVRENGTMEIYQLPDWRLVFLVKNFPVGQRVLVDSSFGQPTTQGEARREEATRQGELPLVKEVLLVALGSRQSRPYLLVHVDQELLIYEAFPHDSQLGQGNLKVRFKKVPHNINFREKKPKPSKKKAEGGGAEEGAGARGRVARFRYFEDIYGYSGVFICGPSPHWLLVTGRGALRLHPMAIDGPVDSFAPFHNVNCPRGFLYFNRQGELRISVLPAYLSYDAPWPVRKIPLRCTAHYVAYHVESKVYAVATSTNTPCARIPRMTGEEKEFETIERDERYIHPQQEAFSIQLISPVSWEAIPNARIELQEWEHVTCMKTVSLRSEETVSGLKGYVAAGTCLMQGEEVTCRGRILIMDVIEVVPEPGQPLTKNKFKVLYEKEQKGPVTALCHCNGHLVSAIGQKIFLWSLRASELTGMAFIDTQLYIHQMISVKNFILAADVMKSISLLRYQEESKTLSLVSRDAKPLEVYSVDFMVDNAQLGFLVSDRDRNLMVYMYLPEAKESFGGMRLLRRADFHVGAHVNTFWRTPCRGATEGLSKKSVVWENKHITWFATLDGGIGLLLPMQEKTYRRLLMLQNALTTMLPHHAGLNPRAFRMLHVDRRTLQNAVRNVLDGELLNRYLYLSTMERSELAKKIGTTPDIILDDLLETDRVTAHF
Sequence (Q9C0J8 1-410 R49A/K50A, chain 2 of 3): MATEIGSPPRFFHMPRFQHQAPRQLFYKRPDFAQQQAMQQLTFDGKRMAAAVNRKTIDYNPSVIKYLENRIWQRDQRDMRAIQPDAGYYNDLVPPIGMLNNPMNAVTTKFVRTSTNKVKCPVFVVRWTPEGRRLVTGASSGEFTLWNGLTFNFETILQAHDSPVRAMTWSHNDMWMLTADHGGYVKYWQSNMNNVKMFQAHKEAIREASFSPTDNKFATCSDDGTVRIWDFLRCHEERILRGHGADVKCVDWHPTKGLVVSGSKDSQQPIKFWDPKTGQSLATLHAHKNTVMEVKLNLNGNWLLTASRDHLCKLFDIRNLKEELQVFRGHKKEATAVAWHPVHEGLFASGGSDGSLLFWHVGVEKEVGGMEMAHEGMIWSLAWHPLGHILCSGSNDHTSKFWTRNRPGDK
Sequence (O95639 1-117, chain 3 of 3): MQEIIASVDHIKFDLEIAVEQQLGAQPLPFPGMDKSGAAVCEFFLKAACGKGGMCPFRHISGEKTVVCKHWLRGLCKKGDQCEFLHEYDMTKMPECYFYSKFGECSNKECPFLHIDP
readout: Kd (nM)
All answers are understood in nM, so give the number only.

Value of Kd reported for the binder CACACAAUAAAGGCAA (ssRNA) [L3 PAS RNA wild-type (AAUAAA)] is 2.42
